- Tested on: Candida albicans
- assay: Antimicrobial MIC protocol, Candida albicans
- Assay type: cell-based, Candida albicans (ATCC strain 44506)
- measurement_setup: lowest concentration which completely inhibited growth, 1000 cells/mL, 37° C. overnight
- Experimental: Unless otherwise noted, all media were autoclaved at 121° C. for 15 minutes. Candida albicans: C. albicans (ATCC strain 44506 was grown on Sabouraud dextrose agar to produce single colonies, one of which was used to inoculate Sabouraud dextrose broth. The broth was incubated at 37° C. with shaking at 200 rpm for 18 hours. The resultant culture was brought to 10% (v/v) glycerol, frozen at -80° C., and used as the inoculum for the anti-Candida assay. […]
measured_property: MIC (µg/mL)
Give a bare numeral; the unit µg/mL is implied.

Prompt: Specify measured MIC for Brc1ccc2c(-c3nc(-c4c[nH]c5ccccc45)c[nH]3)c[nH]c2c1 .
Completion: 6.2

Prompt: Specify measured MIC for Brc1ccc2c(-c3c[nH]c(-c4c[nH]c5cc(Br)ccc45)n3)c[nH]c2c1 .
Completion: 3.1

Prompt: Specify measured MIC for Brc1ccc2c(-c3c[nH]c(-c4c[nH]c5ccccc45)n3)c[nH]c2c1 .
Completion: 12.5
